Listed next: entries and their corresponding pIC50.
Biological target: Human immunodeficiency virus type 1 reverse transcriptase (Human immunodeficiency virus 1, UniProt Q72547)
Note on units: pIC50 is unitless, being -log10 of a concentration expressed in mol/L.

Known results for compounds:
CCc1cc(CCc2cc3ccccc3o2)c(O)nc1C :: 7.11
CCc1cc(NCc2nc3ccccc3[nH]2)c(O)nc1C :: 5.19
CCc1cc(CCc2nc3ccccc3s2)c(O)nc1C :: 6.43
CCc1cc(NCc2nc3c(C)cccc3o2)c(O)nc1C :: 6.90
CCc1cc(CCc2nc3ccccc3o2)c(O)nc1C :: 7.66

Query: Field request: pIC50 | item: CCc1cc(NCc2nc3c(Cl)ccc(Cl)c3o2)c(O)nc1C [L-697661]
Response: 7.72

Query: For CCc1cc(CCc2nc3c(Cl)ccc(Cl)c3o2)c(O)nc1C then?
Response: 8.02

Query: For CCc1cc(NCc2cc3ccccc3o2)c(O)nc1C then?
Response: 6.63

Query: For CCc1cc(NCc2nc3ccccc3s2)c(O)nc1C then?
Response: 6.46

Query: For CCc1cc(CCN2C(=O)c3ccccc3C2=O)c(O)nc1C then?
Response: 5.43

Query: For CCc1cc(CCc2nc3c(C)ccc(C)c3o2)c(=O)[nH]c1C then?
Response: 7.64

Query: For CCc1cc(NCc2nc3ccccc3o2)c(O)nc1C then?
Response: 6.68

Query: For CCc1cc(NCc2ccc3ccccc3c2)c(=O)[nH]c1C then?
Response: 6.36

Query: For CCc1cc(NCc2nc3cccc(C)c3o2)c(O)nc1C then?
Response: 7.26

Query: For CCc1cc(NCc2nc3c(C)ccc(C)c3o2)c(O)nc1C then?
Response: 7.70
